experimental protocol: photoluminescence quantum yield (fraction); solvent given as SMILES
measurement setup: in ClCCl
Kind request: treat 0.3 as inclusive, so photoluminescence quantum yield at 0.3 or higher is condition met, anything lower is condition not met.

Please tell me: is the molecule "Fc1ccc(N(c2ccccc2)c2ccc3ccc4c(N(c5ccccc5)c5ccc(F)cc5)ccc5ccc2c3c54)cc1" at or over 0.3 in terms of photoluminescence quantum yield? condition met

Please tell me: is the molecule "CCn1c2ccccc2c2cc(-c3cc(-c4ccc5c(c4)c4ccccc4n5CC)nc(SC)n3)ccc21" at or over 0.3 in terms of photoluminescence quantum yield? condition met

Please tell me: is the molecule "CC(C)(C)c1ccc(C2=c3c(c4ccc(C(C)(C)C)cc4c4cc(C(C)(C)C)ccc34)=[N+]3C2=C(c2ccccc2)c2c(-c4ccc(C(C)(C)C)cc4)c4c5ccc(C(C)(C)C)cc5c5cc(C(C)(C)C)ccc5c4n2[B-]3(F)F)cc1" at or over 0.3 in terms of photoluminescence quantum yield? condition met

Please tell me: is the molecule "c1ccc(C2=C(c3ccccn3)[Si](c3ccccc3)(c3ccccc3)c3ccccc32)cc1" at or over 0.3 in terms of photoluminescence quantum yield? condition not met

Please tell me: is the molecule "CCCCCCN(CCCCCC)c1ccc(C#Cc2ccc([N+](=O)[O-])cc2)cc1" at or over 0.3 in terms of photoluminescence quantum yield? condition not met

Please tell me: is the molecule "c1cc2ccc3ccc(OP4(Oc5ccc6ccc7cccc8ccc5c6c78)=NP(Oc5ccc6ccc7cccc8ccc5c6c78)(Oc5ccc6ccc7cccc8ccc5c6c78)=NP(Oc5ccc6ccc7cccc8ccc5c6c78)(Oc5ccc6ccc7cccc8ccc5c6c78)=N4)c4ccc(c1)c2c34" at or over 0.3 in terms of photoluminescence quantum yield? condition met
